molecular target: monomeric alpha-synuclein (UniProt P37840 1-140); assay: SPR, captured mAb
measured.attribute: koff
Please answer using a numeric value trailed by its unit.

Quickly give me recorded koff for ACI-8032-6307F1-Ab2 (antibody, V domains shown, mouse hybridoma mAb; VH/VL only; also called 6307F1H10) VH: QVQLQQSGAELARPGASVKLSCKASGYTFTSYGMSWVKQRTGQGLEWIGEIYPRSGNTYYNEKFKGKATLTSDKSSSTSYMELRSLTSEDSAVYFCASESYYGDYAWYFDVWGTGTTVTVSS VL: DVLMTQTPLSLPVSLGDQASISCRSSQSVVHSNGITYLEWYLQKPGQSPKLLIYKVSNRFSGVPDRFSGSGSGTYFTLKISRVEAEDLGVYYCFQGSHVPPTFGGGTKLEIK
0.0248 s⁻¹
